Assay: LD50 by the up and down method
Type: in vivo
Conditions: mouse, in vivo, po; per os; observations for 24 hours
Reported property: LD50 at 24 h (mg/kg)
Answer format: numeric, mg/kg implied, no suffix.

Recorded results for 2 compounds are shown here.
{"Compound": "CC(C)=CCCC(C)(O)C1CC=C(C)CC1 (stereo not drawn)", "Reported property": "LD50 at 24 h", "Measurement": 3.67}
{"Compound": "CC(C)=CCCC(C)=CCCC(C)=CCC(=O)OC(C)(CCC=C(C)C)C1CC=C(C)CC1 (stereo not drawn)", "Reported property": "LD50 at 24 h", "Measurement": 24.1}

Request: Record request: LD50 at 24 h value, item `CC(C)=CCCC(C)=CCCC(C)=CCC(=O)O`
Result: 4.26
